system: K12877-001-R-J1-PDC complex spheroid viability; experiment: Anticancer human tumor K12877-001-R-J1-PDC patient-derived lung adenocarcinoma cell line growth inhibition [RAS]; conditions: second compound 0.000949 µM; first compound 0.316 µM; hits give low values
Listed next: entries and their corresponding viability, T/C.

Below, each entry is followed by its recorded viability, T/C result.
CCC(CC)c1cc(NC2CCC(N)C2)n2nccc2n1 (centres undefined) + CCn1c(-c2cc(N3CCN(C)CC3)cnc2C(C)OC)c2c3cc(ccc31)-c1csc(n1)CC(NC(=O)C1CC1C)C(=O)N1CCCC(N1)C(=O)OCC(C)(C)C2 :: 84.6%
CC(Nc1ccc2c(c1)OCCn1cc(N3C(=O)OCC3C(F)F)nc1-2)C(N)=O (centres undefined) + CCn1c(-c2cccnc2C(C)OC)c2c3cc(ccc31)N1CCOC(CC(NC(=O)C(C(C)C)N(C)C(=O)C3(F)CCN(C(=O)C#CC(C)(C)N(C)C)CC3)C(=O)N3CCCC(N3)C(=O)OCC(C)(C)C2)C1 :: 55.3%
CCN1CCN(Cc2ccc(Nc3ncc(F)c(-c4cc(F)c5nc(C)n(C(C)C)c5c4)n3)nc2)CC1 + CCn1c(-c2cccnc2C(C)OC)c2c3cc(ccc31)N1CCOC(CC(NC(=O)C(C(C)C)N(C)C(=O)C3(F)CCN(C(=O)C#CC(C)(C)N(C)C)CC3)C(=O)N3CCCC(N3)C(=O)OCC(C)(C)C2)C1 :: 50.1%

Incoming: Recall the reported viability, T/C of C=CC(=O)N1CCN(c2nc(OCC3CCCN3C)nc3c(F)c(-c4nc(N)cc(C)c4C(F)(F)F)c(Cl)cc23)C(C)C1 (centres undefined) + CCn1c(-c2cccnc2C(C)OC)c2c3cc(ccc31)N1CCOC(CC(NC(=O)C(C(C)C)N(C)C(=O)C3(F)CCN(C(=O)C#CC(C)(C)N(C)C)CC3)C(=O)N3CCCC(N3)C(=O)OCC(C)(C)C2)C1 when tested on K12877-001-R-J1-PDC complex spheroid viability.
Outgoing: 76%

###

system: K12877-001-R-J1-PDC complex spheroid viability; assay: Anticancer human tumor K12877-001-R-J1-PDC cell line growth inhibition [RAS]; conditions: second compound 10 µM; first compound 0.1 µM; active = viability on the fitted dose curve at most 10% of control; inactive = the rest;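 further: tumour cells co-cultured with HUVEC and mesenchymal stem cells in spheroids; spheroids exposed to agents for one week before readout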
Write down one outcome, taken from 1.0 = active, 0.0 = inactive

C=CC(=O)Nc1cc(Nc2nccc(-c3cn(C)c4ccccc34)n2)c(OC)cc1N(C)CCN(C)C + C#Cc1c(F)ccc2cc(O)cc(-c3ncc4c(N5CC6CCC(C5)N6)nc(OCC56CCCN5CC(F)C6)nc4c3F)c12 :: 0.0
CC(=O)OC12COC1CC(O)C1(C)C(=O)C(O)C3=C(C)C(OC(=O)C(O)C(NC(=O)OC(C)(C)C)c4ccccc4)CC(O)(C(OC(=O)c4ccccc4)C21)C3(C)C (centres undefined) + C#Cc1c(F)ccc2cc(O)cc(-c3ncc4c(N5CC6CCC(C5)N6)nc(OCC56CCCN5CC(F)C6)nc4c3F)c12 :: 1.0
O=C(c1ccc(F)c(F)c1Nc1ccc(I)cc1F)N1CC(O)([C@@H]2CCCCN2)C1 + C#Cc1c(F)ccc2cc(O)cc(-c3ncc4c(N5CC6CCC(C5)N6)nc(OCC56CCCN5CC(F)C6)nc4c3F)c12 :: 0.0

Incoming: What did the test return for NC1c2ccccc2OC12CCN(c1cnc3c(N4CCCc5ncccc54)n[nH]c3n1)CC2 (centres undefined) + C#Cc1c(F)ccc2cc(O)cc(-c3ncc4c(N5CC6CCC(C5)N6)nc(OCC56CCCN5CC(F)C6)nc4c3F)c12 ?
Outgoing: 0.0

The origin of these recorded values is PubChem BioAssay AID2060894.
